z-score by entry:
assay procedure: growth inhibitors of anaerobic choline-fed gram-negatives, minimal medium, absorbance (AID 1963822)
recorded conditions: Gram-negative bacterium anaerobic choline minimal medium, active compounds read low
In all, about 55,000 compounds went through this assay and about 90 (0.2%) were called active. Many of the other results were omitted from the sample, so actives are more common in it than they were.
Please respond with just the number, no unit label.

                                   compound  endpoint_result
0  COc1cc(OC)cc(N2C=C(C#N)S(=O)(=O)c3cc(F)ccc32)c1             0.71
1  CC(C)C(=O)N1CCN(c2ccc(Nc3c4c(nc5nc(-c6ccccc6)nn35)CCCC4)cc2)CC1            -0.12
2  CCOc1ccc(-c2cc(C(=O)Oc3ccc(OC)cc3)no2)cc1            -0.02

Provide one value: measured z-score of Cc1ccc(C)c(Cn2cccc(S(=O)(=O)N3CCCC3)c2=O)c1 1.03

Read the entry CC(C)NC(=O)Cc1csc(NC(=O)C2CC2)n1 and write its reported z-score. 0.37

Entry Cc1nc(-c2csc(S(=O)(=O)NCc3ccccc3Cl)c2)sc1C needs its z-score filled in; supply it. -0.96

Give the value of z-score reported for the following: CCc1nc(-c2ccc(C(=O)NCC(=O)Nc3ccc(Cl)cc3)cc2)no1 -0.03

For the compound O=C(NC1CC1)C1CCCN(c2ccc3cc(S(=O)(=O)N4CCCCC4)ccc3n2)C1 (stereo not given) , report z-score. -0.89

Indicate its recorded z-score; the compound in question is Cc1nc(Nc2ccccc2)nc2c1C(=O)CC(C)C2 (stereo not given) 0.7

Give recorded z-score. Cc1ccccc1C1CC(=O)c2cnc3c(-c4ccc(F)cc4)c(C)nn3c2C1 (stereo not given) 0.81
